biological target: 5-HT2A receptor (Homo sapiens); experiment: Radioligand binding assay with [125I]DOI; details: competition with [125I]DOI, read-out: DOI Binding Ki (nM) 2A
Sequence (P28223 whole entry): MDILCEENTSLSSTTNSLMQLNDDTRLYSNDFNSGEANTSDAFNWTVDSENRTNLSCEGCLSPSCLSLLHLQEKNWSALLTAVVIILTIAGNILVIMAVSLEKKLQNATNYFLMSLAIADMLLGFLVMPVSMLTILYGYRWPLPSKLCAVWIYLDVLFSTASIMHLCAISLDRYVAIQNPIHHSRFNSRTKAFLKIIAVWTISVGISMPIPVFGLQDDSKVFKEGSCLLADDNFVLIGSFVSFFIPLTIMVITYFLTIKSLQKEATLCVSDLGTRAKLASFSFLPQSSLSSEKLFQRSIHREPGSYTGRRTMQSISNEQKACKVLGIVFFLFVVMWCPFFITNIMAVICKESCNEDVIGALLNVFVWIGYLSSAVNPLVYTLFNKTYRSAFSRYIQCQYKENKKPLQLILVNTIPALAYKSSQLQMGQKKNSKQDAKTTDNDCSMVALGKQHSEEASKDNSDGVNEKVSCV
Please respond with true when measured Ki is strictly beneath 200 nM, and with false in all other cases.

Solved entries:
CC1(C)CC2CCNCc3cccc(c32)C12CC2 (centres unmarked)    false
CC1(C)CCC2CCNCc3cccc1c32 (centres unmarked)    false
Brc1ccc2c3c1CCCC3CCNC2 (centres unmarked)    false
c1cc2c3c(c1)C1(CC1)C1(CC1)CC3CCNC2 (centres unmarked)    true

Continue with the next molecule.
stdin: Consider CC1(C)c2cccc3c2C(CCNC3)CC12CC2 (centres unmarked) . Does its Ki lie strictly below 200 nM?
stdout: false

----------
target: 5-HT2B receptor (Homo sapiens); test: IP accumulation assay; assay type: cell-based; conditions: [3H]inositol phosphates, read-out: IP Accumulation EC50 (nM) 2B
Sequence (P41595 whole entry): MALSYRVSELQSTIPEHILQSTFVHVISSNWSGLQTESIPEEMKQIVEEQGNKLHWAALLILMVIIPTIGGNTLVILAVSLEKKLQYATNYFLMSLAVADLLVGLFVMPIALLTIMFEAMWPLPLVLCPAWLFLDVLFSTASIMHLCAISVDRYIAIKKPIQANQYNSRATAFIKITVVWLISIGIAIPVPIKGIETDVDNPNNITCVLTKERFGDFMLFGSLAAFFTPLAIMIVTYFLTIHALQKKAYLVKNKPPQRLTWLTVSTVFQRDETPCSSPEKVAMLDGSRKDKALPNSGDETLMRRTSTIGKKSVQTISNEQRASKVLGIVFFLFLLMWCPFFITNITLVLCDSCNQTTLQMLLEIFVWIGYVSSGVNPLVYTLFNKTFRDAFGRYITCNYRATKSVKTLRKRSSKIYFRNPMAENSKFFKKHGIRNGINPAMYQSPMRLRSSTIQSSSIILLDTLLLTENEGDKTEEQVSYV
experimental_readout: EC50

Examples from the recorded data:
c1cc2c3c(c1)C1(CCC3CCNC2)CC1 (stereo not drawn) [Compound 128]    284 nM
CCc1ccc2c3c1C1(CC1)C1(CC1)CC3CCNC2 (stereo not drawn) [Compound 101]    > 100000 nM
CC1(C)CC2CCNCc3ccc(F)c(c32)C12CC2 (stereo not drawn) [Compound 119]    > 100000 nM

For each of the compounds below, note its EC50.
1. c1cc2c3c(c1)C1(CC1)C1(CC1)CC3CCNC2 (stereo not drawn) [Compound 130]
2. CC1(C)c2cccc3c2C(CCNC3)CC12CC2 (stereo not drawn) [Compound 121]
3. c1cc2c3c(c1)C1(CCC1)CCC3CCNC2 (stereo not drawn) [Compound 131]

stdout:
967 nM
> 100000 nM
> 100000 nM

----------
target: UniProt:P28223; assay: IP accumulation assay; format: cell-based; conditions: [3H]inositol phosphates, read-out: IP Accumulation EC50 (nM) 2A
experimental_readout: EC50

Examples from the recorded data:
CCc1ccc2c3c1C1(CC1)C1(CC1)CC3CCNC2 (stereo not drawn)    > 100000 nM
CC1(C)CC2CCNCc3ccc(F)c(c32)C12CC2 (stereo not drawn)    > 100000 nM
c1cc2c3c(c1)C1(CCC3CCNC2)CC1 (stereo not drawn)    > 100000 nM
c1cc2c3c(c1)C1(CC1)C1(CC1)CC3CCNC2 (stereo not drawn)    465 nM
c1cc2c3c(c1)C1(CCC1)CCC3CCNC2 (stereo not drawn)    > 100000 nM

Turning to the following compound.
stdin: Query EC50 for CC1(C)c2cccc3c2C(CCNC3)CC12CC2 (stereo not drawn)
stdout: > 100000 nM

----------
Molecular target: 5-HT2C receptor (Homo sapiens)
Construct: expressed in transfected cells; host or cells: HEK293
Sequence (P28335 33-458): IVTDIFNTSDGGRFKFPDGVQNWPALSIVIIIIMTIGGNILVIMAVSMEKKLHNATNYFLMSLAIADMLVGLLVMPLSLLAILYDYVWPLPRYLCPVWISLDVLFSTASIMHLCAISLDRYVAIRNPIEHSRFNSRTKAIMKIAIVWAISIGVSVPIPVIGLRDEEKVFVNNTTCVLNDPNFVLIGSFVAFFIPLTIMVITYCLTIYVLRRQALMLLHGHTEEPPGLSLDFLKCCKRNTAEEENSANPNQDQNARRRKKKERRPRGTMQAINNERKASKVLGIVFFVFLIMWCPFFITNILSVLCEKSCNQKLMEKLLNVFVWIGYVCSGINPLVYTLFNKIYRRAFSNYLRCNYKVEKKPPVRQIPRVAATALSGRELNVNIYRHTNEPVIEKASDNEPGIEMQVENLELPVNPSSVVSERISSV
Test: IP accumulation assay
Assay type: cell-based
Conditions: HEK293 cells expressing recombinant 5-HT2C receptors, [3H]inositol phosphates, 2 h at 37° C.
Method: HEK293 cells expressing recombinant 5-HT2C receptors were added to sterile poly-D-lysine-coated 96-well microtiter plates (35,000 cells/well) and labeled with 0.6 µCi/well of [^3H]inositol in myoinositol-free DMEM for 18 h. […] After thawing, total [^3H]inositol phosphates were resolved from [^3H]inositol using AG1-X8 ion exchange resin (Bio-Rad) and [^3H]inositol phosphates were measured by scintillation counting using a Perkin Elmer TopCount® scintillation counter. […]
experimental_readout: EC50
Give the value; after it, write the unit.

Examples from the recorded data:
CC1(C)c2cccc3c2C(CCNC3)CC12CC2 (stereo not drawn) [Compound 121]    222 nM
c1cc2c3c(c1)C1(CCC3CCNC2)CC1 (stereo not drawn) [Compound 128]    108 nM
CC1(C)CC2CCNCc3ccc(F)c(c32)C12CC2 (stereo not drawn) [Compound 119]    391 nM

For each of the compounds below, note its EC50.
1. c1cc2c3c(c1)C1(CCC1)CCC3CCNC2 (stereo not drawn) [Compound 131]
2. c1cc2c3c(c1)C1(CC1)C1(CC1)CC3CCNC2 (stereo not drawn) [Compound 130]
3. CCc1ccc2c3c1C1(CC1)C1(CC1)CC3CCNC2 (stereo not drawn) [Compound 101]

stdout:
1: 83.5 nM; 2: 5.21 nM; 3: 2040 nM

----------
Target: 5-HT2C receptor (Homo sapiens, UniProt P28335)
Construct: expressed in transfected cells; host or cells: HEK293
Sequence (P28335 33-458): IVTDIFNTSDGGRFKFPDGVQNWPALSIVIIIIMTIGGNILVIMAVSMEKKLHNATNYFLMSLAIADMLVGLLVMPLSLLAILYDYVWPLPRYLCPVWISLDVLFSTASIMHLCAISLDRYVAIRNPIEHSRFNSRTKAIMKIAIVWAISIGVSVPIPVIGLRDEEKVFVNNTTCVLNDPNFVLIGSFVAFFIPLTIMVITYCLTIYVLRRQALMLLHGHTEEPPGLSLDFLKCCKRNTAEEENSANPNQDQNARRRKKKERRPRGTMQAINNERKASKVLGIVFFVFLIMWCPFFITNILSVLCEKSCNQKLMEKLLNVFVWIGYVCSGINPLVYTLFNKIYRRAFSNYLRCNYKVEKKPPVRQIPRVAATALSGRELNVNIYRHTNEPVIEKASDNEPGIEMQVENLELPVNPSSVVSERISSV
Test: Radioligand binding assay with [125I]DOI
Settings: competition with [125I]DOI, membranes of HEK293 cells expressing recombinant 5-HT2C receptors; read-out: DOI Binding Ki (nM) 2C
Please respond with Criterion met when measured Ki is strictly beneath 30 nM, and with Criterion not met in all other cases.

Solved entries:
CC1(C)CC2CCNCc3cccc(c32)C12CC2 (centres unmarked) [Compound 102]    Criterion met
CC1(C)c2cccc3c2C(CCNC3)CC12CC2 (centres unmarked) [Compound 121]    Criterion met
c1cc2c3c(c1)C1(CC1)C1(CC1)CC3CCNC2 (centres unmarked) [Compound 130]    Criterion met
Brc1ccc2c3c1CCCC3CCNC2 (centres unmarked) [Compound 106]    Criterion not met

Continue with the next compound.
stdin: Consider CC1(C)CCC2CCNCc3cccc1c32 (centres unmarked) [Compound 135] . Does its Ki lie strictly below 30 nM?
stdout: Criterion not met

----------
target: 5-HT2B receptor (Homo sapiens); assay: Radioligand binding assay with [125I]DOI; settings: competition with [125I]DOI, read-out: DOI Binding Ki (nM) 2B
Please respond with true (1) when measured Ki is strictly beneath 300 nM, and with false (0) in all other cases.

stdin: Consider CC1(C)c2cccc3c2C(CCNC3)CC12CC2 (centres unmarked) . Does its Ki lie strictly below 300 nM?
stdout: false (0)

stdin: Consider CC1(C)CCC2CCNCc3cccc1c32 (centres unmarked) . Does its Ki lie strictly below 300 nM?
stdout: false (0)

stdin: Consider Brc1ccc2c3c1CCCC3CCNC2 (centres unmarked) . Does its Ki lie strictly below 300 nM?
stdout: true (1)

stdin: Consider CC1(C)CC2CCNCc3cccc(c32)C12CC2 (centres unmarked) . Does its Ki lie strictly below 300 nM?
stdout: true (1)

stdin: Consider c1cc2c3c(c1)C1(CC1)C1(CC1)CC3CCNC2 (centres unmarked) . Does its Ki lie strictly below 300 nM?
stdout: true (1)
